System: ACHN
Test: NCI tumour cell line growth inhibition, 48 h
Active and inactive are the calls of the source. Rule as the data show it: active = GI50 up to about 1.1 µM and inactive = higher.
Possible outcomes: True = active, False = inactive

# molecule, group
rows = [
    ("CCC(C)c1cccc(C)c1NC(=O)C(=O)Cc1nc2ccccc2s1 (stereo unspecified)", "False"),
    ("COc1cc2cnc3c4cc(O)ccc4ccc3c2cc1OC", "False"),
    ("CCOC(=O)C1c2[nH]c3ccccc3c2CCN1C(=O)c1ccco1 (stereo unspecified)", "False"),
    ("COc1cc2c[n+]3c4c(c2c(OC)c1OC)CCCC4CC3 (stereo unspecified)", "False"),
    ("O=C1CCCC2=C1CC1=C(CCCC1=O)N2c1ccc(-c2ccccc2)cc1", "False"),
    ("O=C(NN1C(=O)C(Cl)C1c1cccc(Cl)c1)c1ccccc1O (stereo unspecified)", "False"),
    ("O=C(O)CCC(=O)OC1N=C(c2ccccc2Cl)c2cc([N+](=O)[O-])ccc2NC1=O (stereo unspecified)", "False"),
    ("CCC(C#N)N(Cc1ccc(CN(C(=O)c2ccccc2)C(C#N)CC)cc1)C(=O)c1ccccc1 (stereo unspecified)", "False"),
    ("CC1(C)OCN(c2ccc(Cl)cc2)Cn2c1nc1ccccc12", "False"),
    ("Cc1ccc(NC(=O)C(=O)C2C(=O)N(c3ccccc3)N=C2N)cc1C (stereo unspecified)", "False"),
    ("CCN(CC)CC(C(C)=O)C(c1ccccc1)c1c(O)c2ccccc2oc1=O (stereo unspecified)", "False"),
    ("C=CCN1CCC(O)(c2cc(C(=O)OCC)[nH]c2-c2cc(C)no2)C1 (stereo unspecified)", "False"),
    ("COC(=O)c1c(C#C[Si](C)(C)C)c(C#C[Si](C)(C)C)c(C#C[Si](C)(C)C)c(C#C[Si](C)(C)C)c1C(=O)OC", "False"),
    ("CC1(C)CCCCCC(C)(CCCO)C1=O (stereo unspecified)", "False"),
    ("Cc1ccccc1C1=C(C(=O)Nc2ccc(Cl)c(Cl)c2)NC(=S)NC1N (stereo unspecified)", "False"),
    ("CN(C)C(=S)N/N=C\\C(=N/NC(=S)N(C)C)c1ccccc1", "False"),
    ("c1ccc(/N=C2\\c3ccccc3C3=NCCCN32)cc1", "False"),
    ("COc1cccc(C(=O)O[C@H]2[C@@H]3[C@]4(OC(C)=O)CO[C@@H]4C[C@H](O)[C@@]3(C)C(=O)[C@H](OC(C)=O)C3=C(C)[C@@H](OC(=O)[C@H](O)[C@@H](NC(=O)OC(C)(C)C)c4ccco4)C[C@]2(O)C3(C)C)c1", "True"),
    ("Cc1cccc2c(N)c3cccc(C(=O)NCC[N+](C)(C)Cc4sc(N5CCOCC5)nc4[N+](=O)[O-])c3nc12", "True"),
    ("O=C1CC(C2(O)C(=O)Nc3ccc([N+](=O)[O-])cc32)c2ccccc21 (stereo unspecified)", "False"),
    ("CCOC(=O)/C(C(=O)Nc1ccc(F)cc1)=C(/N)N1CCCC1", "False"),
    ("O=c1[nH]/c(=C/c2ccc(OCc3ccccc3)cn2)c(=O)[nH]/c1=C/c1ccc([N+](=O)[O-])cc1", "False"),
    ("COC(=O)C1CC23C4=C(CCC41)CCC1CN4CC(C)C(CC(OC(C)=O)C12COC(C)=O)C43O (stereo unspecified)", "False"),
    ("CC(=O)c1sc2c(c1OC(=O)c1ccccc1)c(=O)n(-c1ccccc1)c(=S)n2-c1ccccc1", "False"),
    ("Cn1nc(-c2ccccc2)c2c(/C=C/c3ccc(F)cc3)onc2c1=O", "False"),
    ("COC(=O)C1=NN2c3ccccc3CN([C@@H](C)c3ccccc3)C(=O)[C@@H]2C1", "False"),
    ("CC(=O)OCC1OC(OC(C)=O)C(NC#N)C(OC(C)=O)C1OC(C)=O (stereo unspecified)", "False"),
    ("ICC1CCCO1 (stereo unspecified)", "False"),
    ("CCOC(=O)N1CCN(c2c(C)nc(C)nc2O)CC1", "False"),
    ("CN1C(=O)c2c(c3c4ccccc4n(C)c3c3c2c2ccccc2n3C)C1=O", "False"),
    ("Oc1cc2c(cc1C(c1ccc3c(c1)OCO3)N1CCN(C(c3ccc4c(c3)OCO4)c3cc4c(cc3O)OCO4)CC1)OCO2 (stereo unspecified)", "False"),
    ("CC(C)CNC(=O)O", "False"),
    ("C=C(C)C1CC=C(C)CC1 (stereo unspecified)", "False"),
    ("CN(c1ccccc1Cl)S(=O)(=O)c1ccccc1[N+](=O)[O-]", "False"),
    ("O=C1OC(/C=C/c2ccccc2)C(=O)C1=O (stereo unspecified)", "False"),
    ("CCOC(=O)c1csc(-c2cn(C)c3c2C(=O)C(OC)=CC3=O)n1", "False"),
    ("CCOC(=O)/C=C/[C@H](O)[C@@H](O)/C=C/C(=O)OCC", "False"),
    ("CC(C)C1OC(=O)/C=C/C=C/C=C/C=C/C=C/CC(O)C(C)C(O)CC(O)CC(O)CC(O)CC(O)CC(O)CC(O)/C=C/C1C (stereo unspecified)", "False"),
    ("Cc1c2c3ccccc3nc-2n(C)c2ccccc12", "True"),
    ("CSc1nc(Cl)c2c(n1)Sc1nc3cc4c(cc3n1C2O)OCCO4 (stereo unspecified)", "True"),
    ("c1ccc(C(C2=Nc3cccc4cccc(c34)N2)c2ccccc2)cc1", "False"),
]

----------
Tested on: LOX IMVI
Assay: NCI tumour cell line growth inhibition, 48 h
The source made the active and inactive calls. No stated cut-off is given here; in the data, active = GI50 up to about 1.1 µM and inactive = higher.

# compound, GI50
measured = [
    ("O=P1(Oc2ccc(Cl)cc2)OCCS1 (stereo not given)", "> 100 µM (inactive)"),
    ("CC(=O)C(CN(CC(C)C)CC(C)C)C(c1ccccc1)c1c(O)c2ccccc2oc1=O (stereo not given)", "> 100 µM (inactive)"),
    ("c1ccc(C(C2=Nc3cccc4cccc(c34)N2)c2ccccc2)cc1", "18.7 µM (inactive)"),
    ("CNC(=O)SCC(NC(=O)CCC(N)C(=O)O)C(=O)NCC(=O)O (stereo not given)", "67.9 µM (inactive)"),
    ("OCC1OC(c2scc3c(=S)[nH]cnc23)C(O)C1O (stereo not given)", "2.86 µM (inactive)"),
    ("COc1ccccc1/C=C\\c1cc(OC)c(OC)c(OC)c1", "9.59 µM (inactive)"),
    ("CNC(=S)N/N=C1\\CC(c2ccccc2)Oc2ccccc21 (stereo not given)", "> 100 µM (inactive)"),
    ("CCOC(=O)/C=C(/C(=O)OCC)n1cc(C)c(=O)n(Cc2cnnn2COCCOC(C)=O)c1=O", "14.8 µM (inactive)"),
    ("CCCCC1C(=O)N(c2ccc(S(=O)(=O)Nc3ccccn3)cc2)N(c2ccc(O)c(C(=O)O)c2)C1=O (stereo not given)", "> 100 µM (inactive)"),
    ("CCOC(=O)N1CCN(c2c(C)nc(C)nc2O)CC1", "> 100 µM (inactive)"),
    ("CC(C)=CCc1c(C)cc2cc3c(c(O)c2c1O)C(=O)C=C(O)C3(CC=C(C)C)C/C=C(\\C)CO (stereo not given)", "38.5 µM (inactive)"),
    ("COP(=O)(OC)[C@@](O)(c1ccccc1)[C@@H](O)[C@@H](O)c1ccccc1", "17.8 µM (inactive)"),
    ("COC(=O)NCCc1n[nH]c2c1C(=O)C=C(N1CCOCC1)C2=O", "> 100 µM (inactive)"),
    ("COC(=O)[C@@H]1C(=O)O[C@@H](c2ccc3c(c2)OCO3)[C@@H]1C(=O)OC.COC(=O)[C@H]1C(=O)O[C@@H](c2ccc3c(c2)OCO3)[C@@H]1C(=O)OC", "> 100 µM (inactive)"),
    ("COc1ccccc1NC(=S)NN=C(C)c1cccc(C(C)=NNC(=S)Nc2ccccc2OC)n1", "31.8 µM (inactive)"),
    ("CC1=C(C(=O)Nc2ccccc2C)C(c2ccc(Cl)cc2)C(C(=O)Nc2ccccc2C)=C(C)N1", "> 100 µM (inactive)"),
    ("O=C(CC(=O)N1N=C(n2ccc3ccccc32)CC1c1ccccc1)Nc1cccc(Cl)c1 (stereo not given)", "66.4 µM (inactive)"),
    ("CCN1/C(=C/C#C/C(C)=C\\c2sc3ccccc3[n+]2CC)Sc2ccccc21", "2.33 µM (inactive)"),
    ("CCSC1(SCC)CC(Cc2ccc(OC)cc2)N(/C=N/C(C)(C)C)C1 (stereo not given)", "15.1 µM (inactive)"),
    ("C#CCOCC12C=CC(O1)C1COC(=O)C12 (stereo not given)", "> 100 µM (inactive)"),
]

The reported measurements were obtained from ChEMBL document CHEMBL1201862.
